Some binders, each annotated with its measured EC50 (read off the curve).
Target: T1, human ROR1 on cells (HEK293T-hROR1, PANC-1, A549) (human, UniProt Q01973 30-937)
T1 construct: whole, on cells; one molecule for the three cell lines; also called huROR1; cell surface ROR1
T1 sequence (Q01973 30-937): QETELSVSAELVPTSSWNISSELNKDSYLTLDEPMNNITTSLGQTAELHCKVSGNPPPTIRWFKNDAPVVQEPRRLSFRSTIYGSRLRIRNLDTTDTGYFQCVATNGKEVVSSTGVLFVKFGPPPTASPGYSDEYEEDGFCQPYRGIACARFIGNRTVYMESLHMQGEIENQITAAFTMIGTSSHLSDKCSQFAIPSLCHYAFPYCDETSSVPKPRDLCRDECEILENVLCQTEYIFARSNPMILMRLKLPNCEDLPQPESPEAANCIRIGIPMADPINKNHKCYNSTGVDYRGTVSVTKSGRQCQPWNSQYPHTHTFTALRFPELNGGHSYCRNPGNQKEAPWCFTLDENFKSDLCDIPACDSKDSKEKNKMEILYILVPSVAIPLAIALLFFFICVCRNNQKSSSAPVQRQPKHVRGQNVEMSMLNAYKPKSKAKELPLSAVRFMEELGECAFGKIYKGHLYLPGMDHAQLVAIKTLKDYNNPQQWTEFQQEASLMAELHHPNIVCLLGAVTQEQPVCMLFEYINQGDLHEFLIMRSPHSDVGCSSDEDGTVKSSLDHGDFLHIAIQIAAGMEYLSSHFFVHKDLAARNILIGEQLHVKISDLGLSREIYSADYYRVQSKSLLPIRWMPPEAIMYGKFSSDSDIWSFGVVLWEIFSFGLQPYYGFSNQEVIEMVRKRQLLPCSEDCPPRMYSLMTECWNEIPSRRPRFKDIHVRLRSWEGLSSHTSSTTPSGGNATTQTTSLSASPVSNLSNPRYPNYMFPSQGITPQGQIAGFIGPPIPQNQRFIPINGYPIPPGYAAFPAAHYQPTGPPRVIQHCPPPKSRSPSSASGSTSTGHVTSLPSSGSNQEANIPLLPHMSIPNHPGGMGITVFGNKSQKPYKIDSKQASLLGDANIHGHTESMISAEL
Test: flow cytometry on PANC-1 cells, MFI (APC-A Median)
Description: Binding of recombinant anti-ROR1 antibodies to human or cynomolgus ROR1-overexpressing cells was tested by flow cytometry. […]

binder	EC50 (read off the curve)
PR000374 (antibody, human IgG1, kappa, V domains shown, positive control; also called Bench marker 1) VH: EVQLVESGGGLVQPGRSLRLSCTASGSDINDYPITWVRQAPGQGLEWIGFINSGGSTWYASWVKGRFTISRDDSKSIAYLQMNSLKTEDTAVYYCARGYSTYYRDFNIWGQGTLVTVSS VL: DIQMTQSPSSLSASVGDRVTINCQASQSIDSNLAWFQQKPGQPPKLLIYRASNLASGVPDRFSGSGSGTDFTLTISSLEAEDVATYYCLGGVGAVSYRTSFGGGTKVEIKR	~5 nM
PR005347 (antibody, human IgG1, V domains shown, HCAb (heavy chain-only, human IgG1 Fc), no light chain) VH: EVQLVESGGGLVKPGGSLRLSCVTSGFTFSDYYMSWIRQAPGKGMEWISYISTTGSTKNYANSVKGRFTISRDNAKSSLYLQMNSLRAEDTAAYYCARVPPSNASWYEDFDYWGQGTLVTVSS	~8 nM
PR005341 (antibody, human IgG1, V domains shown, HCAb (heavy chain-only, human IgG1 Fc), no light chain) VH: EVQLVESGGGLVKPGGSLRLSCVASGFTFSDYYMSWIRQAPGKGLEWISYISSSGSSIYYAESVKGRFTISRDNAKNSLYLQMNRLRAEDTALYYCARTPPSSDNWYEDFDYWGQGALVTVSS	~2 nM
PR005340 (antibody, human IgG1, V domains shown, HCAb (heavy chain-only, human IgG1 Fc), no light chain) VH: EVQLVESGGGLVKPGGSLRLSCAASGFTFSDYYMSWIRQAPGKGLEWISYISSSGSTIHYADSVKGRFTISRDNAKNSLYLQMNSLRAEDTAIYYCARDIPSSSSDWVSLQFDYWGQGTLVTVSS	~2 nM
PR005343 (antibody, human IgG1, V domains shown, HCAb (heavy chain-only, human IgG1 Fc), no light chain) VH: EVQLVESGGGLVKPGGSLRLSCVASGFTFSDYYMSWIRQAPGKGMEWISYISSSGSTKNYANSVKGRFTISRDNAKNSLYLQMNSLRAEDTAAYYCARVPPYNASWYEDFDYWGQGTLVTVSS	~2 nM
PR005339 (antibody, human IgG1, V domains shown, HCAb (heavy chain-only, human IgG1 Fc), no light chain) VH: EVQLVESGGGLVKPGGSLKLSCAASGFTFSDYYMSWIRQAPGKGVEWISYISNNGSTIHYADSVKGRFTISRDNAKNSLYLQMNSLRAEDTAVYYCARDFNNGWYEDFDYWGQGTLVTVSS	~2 nM
PR005342 (antibody, human IgG1, V domains shown, HCAb (heavy chain-only, human IgG1 Fc), no light chain) VH: EVQLVESGGGLVKPGGSLRLSCAASGFNFSDYYMSWIRQAPGKGLEWISYISNSSSTIYYADSVKGRFTISRDNAKNSLYLQMSRLRAEDTAMYYCARDTTNGWYEDFDYWGQGTLVTVSS	~4 nM
PR005337 (antibody, human IgG1, V domains shown, HCAb (heavy chain-only, human IgG1 Fc), no light chain) VH: EVQLVESGGGLVKPGGSLRLSCAASGFIFSDYYMSWIRQAPGKGLEWVSYISSSGSTIHYADSVKGRFTVSRDNAKNSLYLQMNSLRTEDTAVYYCARDPPTSNSDWVSLHFDHWGQGTLVTVSS	~20 nM
